The measurements presented in this section are drawn from patent US8518946B2.

Assay: Solubility experiment in four systems
Format: physicochemical
Conditions: 0.1% hydrochloric acid, simulated gastric fluid, 0.1% hydrochloric acid; read-out: Solubility Value, 0.1% HCl
Procedure: According to the conventional solubility measurement, the solubility of the test samples were determined in four different systems: phosphate buffer solution (PBS, pH=7.4), methanol, 0.1% hydrochloric acid and water.
endpointLabel: solubility (mg/mL)

A. Cl.N[C@@H](CC(=O)N1CCn2c(C(F)(F)F)nc(C(=O)O)c2C1)Cc1cc(F)c(F)cc1F
B. N[C@@H](CC(=O)N1CCn2c(C(F)(F)F)nc(C(=O)[O-])c2C1)Cc1cc(F)c(F)cc1F.[Na+]
[Q] Of A versus B , which is the one with smaller reported solubility? // return label of chosen record
[A] A
(A: 17.2 mg/mL, B: 94.8 mg/mL)

I. N[C@@H](CC(=O)N1CCn2c(C(F)(F)F)nc(C(=O)O)c2C1)Cc1cc(F)c(F)cc1F.O=C(O)C[C@H](O)C(=O)O
II. N[C@@H](CC(=O)N1CCn2c(C(F)(F)F)nc(C(=O)[O-])c2C1)Cc1cc(F)c(F)cc1F.[Li+]
[Q] I need your help: which of the pair I , II has higher solubility? // return label of chosen record
[A] II
(II: 101 mg/mL, I: 32.6 mg/mL)

---

Assay: Solubility experiment in four systems
Assay type: physicochemical
Conditions: water
endpointLabel: Solubility Value, water (µg/mL)

Solved cases (2 shown):
> print(dat)
                                   compound            endpointlabel  valueunit  measurement
1  N[C@@H](CC(=O)N1CCn2c(C(F)(F)F)nc(C(=O)O)c2C1)Cc1cc(F)c(F)cc1F [Example 9]  Solubility Value, water      µg/mL         1000
2  N[C@@H](CC(=O)N1CCn2c(C(F)(F)F)nc(C(=O)O)c2C1)Cc1cc(F)c(F)cc1F [Example 3]  Solubility Value, water      µg/mL         9200

I. N[C@@H](CC(=O)N1CCn2c(C(F)(F)F)nc(C(=O)O)c2C1)Cc1cc(F)c(F)cc1F [Example 10]
II. N[C@@H](CC(=O)N1CCn2c(C(F)(F)F)nc(C(=O)O)c2C1)Cc1cc(F)c(F)cc1F [Example 8]
[Q] Of I versus II , which is the one with smaller reported Solubility Value, water? // return label of chosen record
[A] II

---

pIC50: −log10 of the molar value.
Record type: pIC50 measurement. Applies to: DPP-VIII (Homo sapiens)
endpointLabel: pIC50

Solved cases (2 shown):
> print(dat)
                                   molecule  endpointlabel  measurement
1  Cl.N[C@@H](CC(=O)N1CCn2c(C(F)(F)F)nc(C(=O)O)c2C1)Cc1cc(F)c(F)cc1F [Example 1, hydrochloride]          pIC50         4.06
2  N[C@@H](CC(=O)N1CCn2c(C(F)(F)F)nc(C(=O)[O-])c2C1)Cc1cc(F)c(F)cc1F.[Li+]          pIC50         4.09

A. N[C@@H](CC(=O)N1CCn2c(C(F)(F)F)nc(C(=O)O)c2C1)Cc1cc(F)c(F)cc1F [Example 2, phosphate]
B. N[C@@H](CC(=O)N1CCn2c(C(F)(F)F)nc(C(=O)O)c2C1)Cc1cc(F)c(F)cc1F [Example 9]
[Q] Of A versus B , which is the one with smaller reported pIC50? // return label of chosen record
[A] A
(A: 3.40, B: 3.94)
